# GI50 per entry
# Tested on: A498
# Assay method text: NCI tumour cell line growth inhibition, 48 h
Active and inactive are the calls of the source. No stated cut-off is given here; in the data, active = GI50 up to about 1.1 µM and inactive = higher.

COc1cc([C@@H]2c3cc4c(cc3[C@@H](NC(=O)NO)[C@H]3COC(=O)[C@H]23)OCO4)cc(OC)c1O :: 14 µM (inactive)
Nc1cc(N2CCOCC2)nc(=O)n1-c1ccccc1 :: > 100 µM (inactive)
CN(CCNC(=O)c1cn(C)c2c1ccc1cc(Cl)c(Cl)cc12)CCNC(=O)c1cn(C)c2c1ccc1cc(Cl)c(Cl)cc12 :: 3.82 µM (inactive)
Cc1nn(C(=O)Cc2ccccc2)c2c1C(c1ccc(Cl)cc1)SC(=N)N2 (stereo not given) :: > 100 µM (inactive)
O/N=C(\CC(O)(C(F)(F)F)C(F)(F)F)c1cccc(Cl)c1 :: 34 µM (inactive)

Continue with the next compound.
Incoming: Item under review: COC(=O)c1cc(C)ccc1C1CN=NC12Cc1cccc(C)c1C2=O (stereo not given) . Reported GI50?
Outgoing: 47.6 µM (inactive)

----------
# Tested on: 786-0
# Assay method text: NCI tumour cell line growth inhibition, 48 h
Active and inactive are the calls of the source. No stated cut-off is given here; in the data, active = GI50 up to about 1.1 µM and inactive = higher.
# GI50 per entry

Record excerpt, results attached:
CC1OC2OC3C(OCC(O)C3O)OC(=O)[C@]34CCC(C)(C)CC3C3=CCC5[C@@]6(C)C[C@H](O)[C@H](OC7OC(CO)C(O)C(O)C7OC7OC(COC(=O)CC(C)(O)CC(=O)OC1C(O)C2O)C(O)C(O)C7O)[C@@](C)(CO)C6CC[C@@]5(C)[C@]3(C)CC4 (some centres undefined) :: 1.21 µM (inactive)
CNC1(C(=O)O)CC1 :: > 100 µM (inactive)
COc1ccc2c(CCN)c(C(=O)O)[nH]c2c1 :: > 100 µM (inactive)
S=c1nc2[nH]c3ccc(Br)cc3c2n[nH]1 :: 35.2 µM (inactive)
COC(=O)c1c(C)cccc1CC1Cc2c(C)cccc2C1=O (centres undefined) :: 32.4 µM (inactive)
CC(=O)O[C@H]1CC[C@@]2(C)C(=CC[C@@H]3C2CC[C@]2(C)Nc4nc5ccccc5cc4CC32)C1 (some centres undefined) :: 3.28 µM (inactive)
O=C(N/N=C\c1ccc([N+](=O)[O-])cc1)Nc1ccc2ccccc2c1 :: 17.2 µM (inactive)
COc1ccc(-c2cc(-c3ccco3)c(C#N)c(=S)n2C2OC(CO)C(O)C(O)C2O)cc1 (centres undefined) :: > 100 µM (inactive)

Continue with the next compound.
Incoming: Item under review: NCC1OC(n2cnc3c(=O)[nH]c(N)nc32)C(O)C1O (centres undefined) . Reported GI50?
Outgoing: > 100 µM (inactive)

----------
# System: NCI-H23
# Assay method text: NCI tumour cell line growth inhibition, 48 h
Active and inactive are the calls of the source. No stated cut-off is given here; in the data, active = GI50 up to about 1.1 µM and inactive = higher.
Endpoint: GI50

Nc1nc(N)c(-c2ccc(Cl)cc2)c(CCC(=O)Nc2cccc(C(F)(F)F)c2)n1 :: > 100 µM (inactive)

Continue with the next molecule.
Incoming: Item under review: Cc1ccc(C)c(N2C(=O)C(=O)C(c3nc4ccccc4s3)/C(=N\c3cccc4c(=O)[nH][nH]c(=O)c34)C2=O)c1 (stereo not drawn) . Reported GI50?
Outgoing: > 100 µM (inactive)

----------
# System: SN12C
# Assay method text: NCI tumour cell line growth inhibition, 48 h
Activity calls are given as the source filed them. Cut-off read from the data, not from the text of the source: active = GI50 up to about 1.1 µM and inactive = higher.
Endpoint: GI50

Record excerpt, results attached:
COc1cccc(/C=C2\S/C(=N/Nc3nc(C)c(C)s3)NC2=O)c1O :: > 100 µM (inactive)
O=C1NC(=S)S/C1=C/c1ccco1 :: > 100 µM (inactive)
C=C1C(C)C2C(Cc3ccccc3)NC(=O)C23OC(=O)/C=C\CC(=O)CCC(C)C/C=C/C3C1O (stereo unspecified) :: 1.93 µM (inactive)
O=C(O)CNS(=O)(=O)c1ccc(NC(=O)c2cccc([N+](=O)[O-])c2)cc1 :: > 100 µM (inactive)
Clc1ccc(OCc2nnc3n2N=C(c2ccc(Br)cc2)CS3)cc1 :: 52.8 µM (inactive)

Incoming: Given the entry `COc1ccc(C[C@@H]2CN(C(=O)c3ccccc3)[C@H](Cc3ccc(O)cc3)CN2C(=O)c2ccccc2)cc1Br` , what GI50 was observed with SN12C?
Outgoing: > 100 µM (inactive)

Incoming: Item: `CN(C)CCONC(=O)C12CC3CC(CC(C3)C1)C2`
Outgoing: > 100 µM (inactive)

Incoming: Item: `O=c1c2cccnc2cc(-c2ccccc2)n1CCO`
Outgoing: > 100 µM (inactive)

Incoming: Item: `COc1cc2c3c(c1OC)C(=O)C(=O)C1=C3N(CCC1)CC2`
Outgoing: 32.4 µM (inactive)

----------
# Tested on: HL-60
# Assay method text: NCI tumour cell line growth inhibition, 48 h
Active and inactive are the calls of the source. Cut-off read from the data, not from the text of the source: active = GI50 up to about 1.1 µM and inactive = higher.
Hi! Could you answer with just one of these? YES (active), NO (inactive)

Cc1c(C#N)c(N)n(C2OCC(O)C(O)C2O)c(=S)c1C#N (stereo not drawn) :: NO
COc1ccc(/C(CCl)=C(\Nc2ccccc2)c2ccc(OC)c(OC)c2)cc1OC :: NO
N#CC12CNCC1CN=N2 (stereo not drawn) :: NO

Incoming: Per the records of this test, what outcome belongs to CCCC(C)n1c(C)nc2c1C(=O)c1ccccc1C2=O (stereo not drawn) ?
Outgoing: NO

Incoming: Item: `Cc1nc2ccc(F)cc2c2c1CCN2c1ccc(Cl)cc1`
Outgoing: NO

Incoming: Item: `Clc1ccc(OCc2nnc3n2N=C(c2ccc(Br)cc2)CS3)cc1`
Outgoing: NO

Incoming: Item: `C=C(C)c1nc(Oc2ccccc2)nc(Oc2ccccc2)n1`
Outgoing: NO

----------
# System: COLO 205
# Assay method text: NCI tumour cell line growth inhibition, 48 h
The source made the active and inactive calls. No stated cut-off is given here; in the data, active = GI50 up to about 1.1 µM and inactive = higher.
Hi! Could you answer with just one of these? yes (active), no (inactive)

Incoming: Per the records of this test, what outcome belongs to `O/N=C(\CC(O)(C(F)(F)F)C(F)(F)F)c1cccc(Cl)c1` ?
Outgoing: no

Incoming: Item: `O=C1CC[C@@]2(O)[C@H]3Cc4ccc(-c5ccccc5)c5c4[C@@]2(CCN3CC2CC2)[C@H]1O5`
Outgoing: no

----------
# System: NCI-H226
# Assay method text: NCI tumour cell line growth inhibition, 48 h
Calls of active or inactive are those of the source. Cut-off read from the data, not from the text of the source: active = GI50 up to about 1.1 µM and inactive = higher.
Endpoint: GI50

Record excerpt, results attached:
CCc1cccc(C(C)CC)c1/N=C(/NC(=O)c1ccccc1C(=O)N/C(=N/c1c(CC)cccc1C(C)CC)SC)SC (stereo not given) :: 17.7 µM (inactive)
CCOC(CCCN1CCC2(CC1)C(=O)N(C)CN2c1ccccc1)(OCC)c1ccc(F)cc1 :: 18.3 µM (inactive)
C#CC[C@@H]1C(=O)N(Cc2ccc(OC)cc2)[C@@H](C(C)C)C(=O)N1Cc1ccc(OC)cc1 :: 35.2 µM (inactive)

Continue with the next compound.
Incoming: Item under review: `Cc1cc(C)nc(NC(=O)COc2ccc(Cl)cc2)c1` . Reported GI50?
Outgoing: > 100 µM (inactive)

----------
# System: COLO 205
# Assay method text: NCI tumour cell line growth inhibition, 48 h
The source made the active and inactive calls. No stated cut-off is given here; in the data, active = GI50 up to about 1.1 µM and inactive = higher.
Endpoint: GI50

Record excerpt, results attached:
Cc1ccc(S(=O)(=O)OCOS(=O)(=O)c2ccc(C)cc2)cc1 :: > 100 µM (inactive)
COc1ccc(OC)c(/N=C/c2cc(OC)c(OC)c(OC)c2)c1 :: > 100 µM (inactive)

Continue with the next molecule.
Incoming: Item under review: `N=C(N)SCc1ccc(Cl)c2ccccc12.O=[N+]([O-])c1c(O)c(Cl)cc(Cl)c1Cl` . Reported GI50?
Outgoing: 10.6 µM (inactive)

----------
# Test system: MCF7
# Assay method text: NCI tumour cell line growth inhibition, 48 h
Activity calls are given as the source filed them. No stated cut-off is given here; in the data, active = GI50 up to about 1.1 µM and inactive = higher.
Hi! Could you answer with just one of these? 1.0 (active), 0.0 (inactive)

COc1ccc(C/C=C(\C)CCO)cc1 :: 0.0
NC(=O)CCC(NC(=O)c1cccc2c(=O)c3ccccc3[nH]c12)C(=O)O (centres undefined) :: 0.0
O=C1c2ccccc2C(=O)N1CC(O)COc1cccc2ccccc12 (centres undefined) :: 0.0

Turning to the following molecule.
Incoming: Per the records of this test, what outcome belongs to `O=c1[nH]c(-c2ccc(Cl)cc2)cc2ccsc12` ?
Outgoing: 0.0

----------
# System: IGROV-1
# Assay method text: NCI tumour cell line growth inhibition, 48 h
The source made the active and inactive calls. Rule as the data show it: active = GI50 up to about 1.1 µM and inactive = higher.
Endpoint: GI50

NC(=O)CCC(NC(=O)c1cccc2c(=O)c3ccccc3[nH]c12)C(=O)O (configuration not stated) :: > 100 µM (inactive)

Incoming: Given the entry `O=C1CCCC2=C1CC1=C(CCCC1=O)N2c1ccccc1` , what GI50 was observed with IGROV-1?
Outgoing: > 100 µM (inactive)

Incoming: Item: `O=C(/C=C/c1ccccc1)/C=C/c1ccccc1`
Outgoing: 28.1 µM (inactive)

Incoming: Item: CCCC(C)n1c(C)nc2c1C(=O)c1ccccc1C2=O (configuration not stated)
Outgoing: 37.4 µM (inactive)

Incoming: Item: Cc1c(C#N)c(N)n(C2OCC(O)C(O)C2O)c(=S)c1C#N (configuration not stated)
Outgoing: > 100 µM (inactive)

Incoming: Item: `Cc1cc(CC(O)(C(F)(F)F)C(F)(F)F)cc(CC(O)(C(F)(F)F)C(F)(F)F)n1`
Outgoing: 3.46 µM (inactive)

Incoming: Item: Cc1nn(C(=O)Cc2ccccc2)c2c1C(c1ccc(Cl)cc1)SC(=N)N2 (configuration not stated)
Outgoing: > 100 µM (inactive)

Incoming: Item: `Cc1nc2c(n1CCN(C)C)C(=O)c1ccccc1C2=O`
Outgoing: 13.4 µM (inactive)

Incoming: Item: CC1CCC(C(C)(C)c2ccccc2)C(=O)C1 (configuration not stated)
Outgoing: > 100 µM (inactive)

Incoming: Item: CC(C)C(Cl)CC/C(CBr)=C(\Cl)CCl (configuration not stated)
Outgoing: 1.77 µM (inactive)

Incoming: Item: O=C1c2ccccc2C(=O)N1CC(O)COc1cccc2ccccc12 (configuration not stated)
Outgoing: > 100 µM (inactive)

Incoming: Item: C/C(=C\c1ccccc1)C(O)S(=O)(=O)O (configuration not stated)
Outgoing: > 100 µM (inactive)
